Data credit: patent US20030229067A1

Reported melting point values are given for each entry in this list.

compound: CC(=O)NCCNc1nc(-c2ccccc2)nc2[nH]c(C(=O)Nc3ccc(Oc4ccccc4)cc3)cc12
melting point: 250 to 257 °C (dec.)
//
compound: CC(=O)NCCNc1nc(-c2ccccc2)nc2[nH]c(C(=O)N3CCN(Cc4ccccc4)CC3)cc12
melting point: 235 to 240 °C (dec.)
//
compound: CC(=O)NCCNc1nc(-c2ccccc2)nc2[nH]c(C(=O)N3C[C@@H](C)NC[C@@H]3C)cc12 (relative stereo)
melting point: 120 to 125 °C
//
compound: CC(=O)NCCNc1nc(-c2ccccc2)nc2[nH]c(C(=O)N3CCN(CCCN4CCOCC4)CC3)cc12
melting point: 225 to 230 °C (dec.)
//
compound: CC(=O)NCCNc1nc(-c2ccccc2)nc2[nH]c(C(=O)N3CCN(CCOc4ccc(Cl)cc4)CC3)cc12
melting point: 227 to 228 °C
//
compound: CC(=O)NCCNc1nc(-c2ccccc2)nc2[nH]c(C(=O)N3CCN(c4ccc(C(F)(F)F)cn4)CC3)cc12
melting point: 270 to 273 °C
//
compound: COC1(c2ccccc2)CCN(C(=O)c2cc3c(NCCNC(C)=O)nc(-c4ccccc4)nc3[nH]2)CC1
melting point: 135 to 138 °C

###

molecule: CC(=O)NCCNc1nc(-c2ccccc2)nc2[nH]c(C(=O)N3CCC(O)(c4cccc(C(F)(F)F)c4)CC3)cc12 [26.10]
melting point: 145 to 150 °C
//
molecule: CC(=O)NCCNc1nc(-c2ccccc2)nc2[nH]c(C(=O)N3CCC(Cc4ccccc4)CC3)cc12 [26.54]
melting point: 260 to 261 °C
//
molecule: COC1(c2ccccc2Cl)CCN(C(=O)c2cc3c(NCCNC(=O)c4cc5c(NCCNC(C)=O)nc(-c6ccccc6)nc5[nH]4)nc(-c4ccccc4)nc3[nH]2)CC1 [26.51]
melting point: 180 to 185 °C (dec.)
//
molecule: CC(=O)NCCNc1nc(-c2ccccc2)nc2[nH]c(C(=O)N3CCOCC3)cc12 [26.1]
melting point: 250 °C

###

# target of assay: human A2B receptor (Homo sapiens, UniProt P29275)
# Construct: expressed in transfected cells; membranes prepared from the cells
# Sequence (P29275 whole entry): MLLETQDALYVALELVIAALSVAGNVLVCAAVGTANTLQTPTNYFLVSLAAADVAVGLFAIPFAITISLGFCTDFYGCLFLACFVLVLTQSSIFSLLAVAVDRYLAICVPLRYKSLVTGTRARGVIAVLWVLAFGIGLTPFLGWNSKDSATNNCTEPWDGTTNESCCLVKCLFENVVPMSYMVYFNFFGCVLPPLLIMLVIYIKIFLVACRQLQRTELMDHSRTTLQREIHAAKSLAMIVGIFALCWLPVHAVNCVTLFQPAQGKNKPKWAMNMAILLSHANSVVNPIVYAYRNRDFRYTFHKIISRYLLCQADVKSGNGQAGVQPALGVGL
# assay procedure: Radioligand binding assay ([3H]-DPCPX competition), membranes of HEK293 stably expressing human A2B receptor
# test context: fold selectivity A2B over A1, A2A and A3 receptors, binding assays
Reported selectivity for the A2B receptor relative to the A1, A2A, and A3 receptor values are given for each entry in this list.
result type: selectivity for the A2B receptor relative to the A1, A2A, and A3 receptor (×)

smiles notation: CC(=O)NCCNc1nc(-c2ccccc2)nc2[nH]c(C(=O)N3CCC(C#N)(c4ccccc4Cl)CC3)cc12
experimental value: 57

smiles notation: CC(=O)NCCNc1nc(-c2ccccc2)nc2[nH]c(COC3CCN(CCc4ccccc4Cl)CC3)cc12
experimental value: 26

smiles notation: CC(=O)NCCNc1nc(-c2ccccc2)nc2[nH]c(C(=O)N3CCN(CCCc4ccc(Cl)cc4)CC3)cc12.CS(=O)(=O)O
experimental value: 17

smiles notation: COC1(c2ccccc2Cl)CCN(C(=O)c2cc3c(NCCNC(C)=O)nc(-c4ccccc4)nc3[nH]2)CC1
experimental value: 57

smiles notation: CC(=O)NCCNc1nc(-c2ccccc2)nc2[nH]c(C(=O)N3CCN(CCCc4ccc(Cl)cc4)CC3)cc12
experimental value: 19

smiles notation: CC(=O)NCCNc1nc(-c2ccccc2)nc2[nH]c(C(=O)N3CCN(c4ccc(Cl)cc4)CC3)cc12
experimental value: 82

smiles notation: CC(=O)NCCNc1nc(-c2ccccc2)nc2[nH]c(COC3CCN(CCc4ccccc4Cl)CC3)cc12.CS(=O)(=O)O
experimental value: 24

smiles notation: CC(=O)NCCNc1nc(-c2ccccc2)nc2[nH]c(C(=O)N3CCC(C#N)(c4ccccc4Cl)CC3)cc12.CS(=O)(=O)O
experimental value: 33
